Recorded measurements of Mean inhibition vs. buffer control (n), Electropermeabilized cell, FMLP, one per entry
Molecular target: NADPH oxidase (Homo sapiens, UniProt P14598)
Construct: Neutrophils were electropermeabilized as described; endogenous in cells; host or cells: electropermeabilized peripheral blood neutrophils (PMN), stimulated with PMA or fMLP
Sequence (P14598 1-390): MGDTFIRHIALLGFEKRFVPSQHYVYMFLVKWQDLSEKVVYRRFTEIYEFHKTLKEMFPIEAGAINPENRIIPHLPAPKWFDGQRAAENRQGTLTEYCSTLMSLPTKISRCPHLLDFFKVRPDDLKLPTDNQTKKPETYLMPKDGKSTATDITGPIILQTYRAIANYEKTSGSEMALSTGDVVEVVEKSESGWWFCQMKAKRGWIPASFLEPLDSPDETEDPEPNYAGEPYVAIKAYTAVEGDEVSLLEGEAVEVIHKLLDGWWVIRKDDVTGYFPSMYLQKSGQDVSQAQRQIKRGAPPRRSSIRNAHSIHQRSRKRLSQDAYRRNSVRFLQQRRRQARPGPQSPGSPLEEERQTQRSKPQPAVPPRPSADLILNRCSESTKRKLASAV
Experiment: Permeabilized cell NADPH oxidase assay (electropermeabilized neutrophils stimulated with PMA or fMLP)
Type: cell-based
Settings: fMLP 10 μM; preincubation with 800 μM peptide, assay with 200 μM peptide
Where a SMILES comes first, the peptide text is derived from it.
value_kind: Mean inhibition vs. buffer control (n), Electropermeabilized cell, FMLP (%)

- compound: "CC(C)C[C@H](NC(=O)[C@@H](N)Cc1c[nH]cn1)C(=O)N[C@@H](Cc1ccccc1)C(=O)N[C@@H](CC(N)=O)C(=O)N[C@H](C(=O)N[C@@H](CCC(=O)O)C(=O)N[C@@H](Cc1c[nH]c2ccccc12)C(=O)N[C@@H](CS)C(=O)O)C(C)C [HLFNVEWC] (H-HLFNVEWC-OH)"
  value_units: "%"
  value_observed: 6
- compound: "CC[C@H](C)[C@H](NC(=O)[C@@H](NC(=O)[C@H](C)NC(=O)[C@H](CCC(N)=O)NC(=O)[C@H](Cc1ccccc1)NC(=O)CNC(=O)[C@H](C)NC(=O)[C@H](Cc1c[nH]cn1)NC(=O)[C@H](C)NC(=O)[C@H](CCCNC(=N)N)NC(=O)[C@H](CCCCN)NC(=O)[C@@H](N)CCCNC(=N)N)[C@@H](C)O)C(=O)O [RKRAHAGFQATI] (H-RKRAHAGFQATI-OH)"
  value_units: "%"
  value_observed: -28
- compound: "NC(N)=NCCC[C@H](NC(=O)[C@H](Cc1ccccc1)NC(=O)[C@@H]1CCCN1C(=O)[C@H](CO)NC(=O)[C@H](Cc1ccccc1)NC(=O)CNC(=O)[C@@H]1CCCN1C(=O)[C@@H]1CCCN1C(=O)[C@@H](N)CCCN=C(N)N)C(=O)O [Bradykinin] (H-RPPGFSPFR-OH)"
  value_units: "%"
  value_observed: -6
- compound: "CC[C@H](C)[C@H](NC(=O)[C@H](Cc1ccccc1)NC(=O)[C@H](Cc1c[nH]cn1)NC(=O)[C@@H](NC(=O)CNC(=O)[C@@H](N)CCCNC(=N)N)C(C)C)C(=O)N[C@@H](Cc1ccccc1)C(=O)O [RGVHFIF, Arg--Gly--Val--His--Phe--Ile--Phe] (H-RGVHFIF-OH)"
  value_units: "%"
  value_observed: 73
- compound: "CSCC[C@H](NC(=O)[C@H](CO)NC(=O)[C@H](Cc1ccccc1)NC(=O)[C@@H](N)C(C)C)C(=O)N[C@@H](Cc1ccccc1)C(=O)N[C@@H](CCC(N)=O)C(=O)NCC(=O)N[C@@H](CCC(=O)O)C(=O)N[C@@H](CCC(=O)O)C(=O)N[C@@H](CO)C(=O)O [VFSMFQGEES] (H-VFSMFQGEES-OH)"
  value_units: "%"
  value_observed: -5

Origin of measurements: patent US5593966A
